Source: patent US9611264B1

STUDY_SYSTEM: BACE1 enzyme (Homo sapiens, UniProt P56817)
Construct: transfected with a soluble BACE construct (BACE1deltaTM96His); His (C)
Sequence (P56817 46-457 limits assumed): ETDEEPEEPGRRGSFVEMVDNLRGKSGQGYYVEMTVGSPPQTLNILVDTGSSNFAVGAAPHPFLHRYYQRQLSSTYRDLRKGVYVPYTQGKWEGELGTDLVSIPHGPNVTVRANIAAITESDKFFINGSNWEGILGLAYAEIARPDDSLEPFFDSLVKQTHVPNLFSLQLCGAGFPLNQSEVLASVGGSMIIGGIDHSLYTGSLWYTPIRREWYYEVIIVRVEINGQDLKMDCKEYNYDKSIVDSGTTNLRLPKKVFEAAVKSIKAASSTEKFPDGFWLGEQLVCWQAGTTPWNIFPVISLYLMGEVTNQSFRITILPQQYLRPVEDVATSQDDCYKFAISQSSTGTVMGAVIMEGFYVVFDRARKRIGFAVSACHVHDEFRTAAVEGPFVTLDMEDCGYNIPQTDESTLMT
ASSAY_OVERVIEW: BACE1 Cell-Free Assay (fluorescence polarization, cleavage of synthetic APP substrate)
COND: geometric mean of 2-4 determinations unless otherwise indicated (b: ≧5 determinations; c: single determination); 0.1 nM BACE1, 150 nM peptide substrate, pH 4.5, 3 hours at 37° C.
ENDPOINT: IC50 (nM)

Previously resolved entries follow.
>  <COMPOUND>
CN1C(N)=N[C@](C)(c2nc(NC(=O)c3cnc(C(F)F)cn3)cs2)CS1(=O)=O [Example 19]

>  <ENDPOINT>
IC50

>  <MEAS_VALUE>
172

$$$$
>  <COMPOUND>
CC[C@H]1[C@](C)(c2nc(NC(=O)c3ccc(OC(F)F)cn3)cs2)N=C(N)N(C)S1(=O)=O [Example 14]

>  <ENDPOINT>
IC50

>  <MEAS_VALUE>
14200

$$$$
>  <COMPOUND>
Cc1cc(C#N)cnc1C(=O)Nc1csc([C@]2(C)CS(=O)(=O)N(C)C(N)=N2)n1 [Example 27]

>  <ENDPOINT>
IC50

>  <MEAS_VALUE>
9

$$$$
>  <COMPOUND>
CN1C(N)=N[C@](C)(c2nc(NC(=O)c3cnc(CF)cn3)cs2)CS1(=O)=O [Example 18]

>  <ENDPOINT>
IC50

>  <MEAS_VALUE>
246

$$$$

[A] CC#CCOc1ccc(C(=O)Nc2csc([C@]3(C)CS(=O)(=O)N(C)C(N)=N3)n2)nc1 [Example 24]
[B] CN1C(N)=N[C@](C)(c2nc(NC(=O)c3ccc(C#N)cn3)cs2)CS1(=O)=O [Example 26]
Lookup: Returns the identifier with the smallest measured IC50 among A and B . Indicate your choice by writing its label.
Found: A
